test: activity coefficient (dimensionless); of the first substance listed, at infinite dilution; xn = mol fraction of the nth substance listed; settings: 373.15 K; 101.33 kPa; Liquid; Chromatography; x1 = 0
Entries whose activity coefficient is below 20 take Satisfied; entries at or above 20 take Not satisfied.

Reference set (5 entries):
# molecule, label.class
data = [
    ("Cc1ccccc1C [1,2-dimethylbenzene] + CCn1cc[n+](C)c1.CO[PH](=O)[O-]", "Satisfied"),
    ("CCCC(C)=O [pentan-2-one] + CCn1cc[n+](C)c1.CO[PH](=O)[O-]", "Satisfied"),
    ("CCCO [propan-1-ol] + CCn1cc[n+](C)c1.CO[PH](=O)[O-]", "Satisfied"),
    ("Cc1cccc(C)c1 [1,3-dimethylbenzene] + CCn1cc[n+](C)c1.CO[PH](=O)[O-]", "Not satisfied"),
    ("CCO [ethanol] + CCn1cc[n+](C)c1.CO[PH](=O)[O-]", "Satisfied"),
]

[ask] Lab note: activity coefficient threshold 20. Does this molecule come in strictly under it? C1COCCO1 [1,4-dioxane] + CCn1cc[n+](C)c1.CO[PH](=O)[O-]
[reply] Satisfied

---

assay: activity coefficient (dimensionless); of the first substance listed, at infinite dilution; xn = mol fraction of the nth substance listed; settings: 333.15 K; 101.33 kPa; Liquid; Chromatography; x1 = 0
Entries annotated with measured activity coefficient
Form: value (number only, do not type unit).

Please review the following examples before continuing.
# compound, activity coefficient
records = [
    ("CCO [ethanol] + CCn1cc[n+](C)c1.CO[PH](=O)[O-]", 0.148),
    ("c1ccccc1 [benzene] + CCn1cc[n+](C)c1.CO[PH](=O)[O-]", 3.52),
]

Now for another entry.
response.value for c1ccsc1 [thiophene] + CO[PH](=O)[O-].Cn1cc[n+](C)c1 (field: activity coefficient) = 2.58

---

assay: activity coefficient (dimensionless); of the first substance listed, at infinite dilution; xn = mol fraction of the nth substance listed; conditions: 313.15 K; 101.33 kPa; Liquid; Chromatography; x1 = 0
Entries whose activity coefficient is below 7 take rule met; entries at or above 7 take rule not met.

Reference set (10 entries):
# molecule, label.class
measured = [
    ("CCC[N+](=O)[O-] [1-nitropropane] + CCn1cc[n+](C)c1.CO[PH](=O)[O-]", "rule met"),
    ("c1ccsc1 [thiophene] + CCn1cc[n+](C)c1.CO[PH](=O)[O-]", "rule met"),
    ("Cc1ccc(C)cc1 [1,4-dimethylbenzene] + CCn1cc[n+](C)c1.CO[PH](=O)[O-]", "rule not met"),
    ("CCc1ccccc1 [ethylbenzene] + CCn1cc[n+](C)c1.CO[PH](=O)[O-]", "rule not met"),
    ("CCC(=O)CC [pentan-3-one] + CO[PH](=O)[O-].Cn1cc[n+](C)c1", "rule not met"),
    ("CCCCCCCC [octane] + CCn1cc[n+](C)c1.CO[PH](=O)[O-]", "rule not met"),
    ("C[N+](=O)[O-] [nitromethane] + CO[PH](=O)[O-].Cn1cc[n+](C)c1", "rule met"),
    ("CCN(CC)CC [triethylamine] + CCn1cc[n+](C)c1.CO[PH](=O)[O-]", "rule not met"),
    ("ClCCl [dichloromethane] + CCn1cc[n+](C)c1.CO[PH](=O)[O-]", "rule met"),
    ("C#CCCCCC [1-heptyne] + CCn1cc[n+](C)c1.CO[PH](=O)[O-]", "rule not met"),
]

[ask] Lab note: activity coefficient threshold 7. Does this molecule come in strictly under it? C1CCCCC1 [cyclohexane] + CO[PH](=O)[O-].Cn1cc[n+](C)c1
[reply] rule not met

[ask] Lab note: activity coefficient threshold 7. Does this molecule come in strictly under it? Cc1ccccc1C [1,2-dimethylbenzene] + CO[PH](=O)[O-].Cn1cc[n+](C)c1
[reply] rule not met

[ask] Lab note: activity coefficient threshold 7. Does this molecule come in strictly under it? C#CCCCCC [1-heptyne] + CO[PH](=O)[O-].Cn1cc[n+](C)c1
[reply] rule not met

[ask] Lab note: activity coefficient threshold 7. Does this molecule come in strictly under it? CCCC(C)=O [pentan-2-one] + CCn1cc[n+](C)c1.CO[PH](=O)[O-]
[reply] rule met

[ask] Lab note: activity coefficient threshold 7. Does this molecule come in strictly under it? C1CCCCCC1 [cycloheptane] + CCn1cc[n+](C)c1.CO[PH](=O)[O-]
[reply] rule not met

[ask] Lab note: activity coefficient threshold 7. Does this molecule come in strictly under it? C=O [methanal] + CCn1cc[n+](C)c1.CO[PH](=O)[O-]
[reply] rule met

[ask] Lab note: activity coefficient threshold 7. Does this molecule come in strictly under it? C#CCCCC [1-hexyne] + CO[PH](=O)[O-].Cn1cc[n+](C)c1
[reply] rule not met

[ask] Lab note: activity coefficient threshold 7. Does this molecule come in strictly under it? CCCCCCCCC [nonane] + CO[PH](=O)[O-].Cn1cc[n+](C)c1
[reply] rule not met

[ask] Lab note: activity coefficient threshold 7. Does this molecule come in strictly under it? Cc1cccc(C)c1 [1,3-dimethylbenzene] + CO[PH](=O)[O-].Cn1cc[n+](C)c1
[reply] rule not met

[ask] Lab note: activity coefficient threshold 7. Does this molecule come in strictly under it? CCCCCCCCCC [decane] + CCn1cc[n+](C)c1.CO[PH](=O)[O-]
[reply] rule not met

[ask] Lab note: activity coefficient threshold 7. Does this molecule come in strictly under it? CC1CCCCC1 [methylcyclohexane] + CO[PH](=O)[O-].Cn1cc[n+](C)c1
[reply] rule not met

[ask] Lab note: activity coefficient threshold 7. Does this molecule come in strictly under it? CCN(CC)CC [triethylamine] + CO[PH](=O)[O-].Cn1cc[n+](C)c1
[reply] rule not met

Measured values drawn from the NIST ThermoML archive (doi:10.1016/j.jct.2015.02.023) for this set.
